Tested on: Escherichia coli TOP10
Assay: shrunken log2 fold change of peptide-encoding DNA abundance (4.5 h post-induction vs induction); higher = less antimicrobial activity (less host growth inhibition)
Details: time post-induction: 4.5 h; library: site-saturation at positions 5, 18, 19, 20
MEASURE NAME: shrunken log2 fold change

QUERY SEQUENCE	TARGET UNDER TEST	MEASURE NAME	RESULT
RRIRSRPPRLPRPRPRPVHMPRP	Escherichia coli TOP10	shrunken log2 fold change	-0.322
RRIRRRPPRLPRPRPRPIGPPRP	Escherichia coli TOP10	shrunken log2 fold change	0.147
RRIRNRPPRLPRPRPRPIHWPRP	Escherichia coli TOP10	shrunken log2 fold change	0.0944
RRIRQRPPRLPRPRPRPAEVPRP	Escherichia coli TOP10	shrunken log2 fold change	0.142
RRIRMRPPRLPRPRPRPFAVPRP	Escherichia coli TOP10	shrunken log2 fold change	-0.109

Exercise: Look up and report shrunken log2 fold change, with Escherichia coli TOP10 as system, for RRIRYRPPRLPRPRPRPGDLPRP
Key: 0.0641

Exercise: Specify shrunken log2 fold change for RRIRERPPRLPRPRPRPYYQPRP , system Escherichia coli TOP10.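 Further: peptides expressed intracellularly from a pBAD plasmid library in pooled LB shake-flask culture, induced with 0.3% L-arabinose, DNA abundance read by NGS, three biological replicates, DESeq2 with apeglm shrinkage.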
Key: 0.0241

Exercise: Supply shrunken log2 fold change measured with Escherichia coli TOP10 for RRIRSRPPRLPRPRPRPFMEPRP .
Key: -0.54
